Target: P2X7 (Homo sapiens, UniProt Q99572)
Sequence (Q99572 1-595): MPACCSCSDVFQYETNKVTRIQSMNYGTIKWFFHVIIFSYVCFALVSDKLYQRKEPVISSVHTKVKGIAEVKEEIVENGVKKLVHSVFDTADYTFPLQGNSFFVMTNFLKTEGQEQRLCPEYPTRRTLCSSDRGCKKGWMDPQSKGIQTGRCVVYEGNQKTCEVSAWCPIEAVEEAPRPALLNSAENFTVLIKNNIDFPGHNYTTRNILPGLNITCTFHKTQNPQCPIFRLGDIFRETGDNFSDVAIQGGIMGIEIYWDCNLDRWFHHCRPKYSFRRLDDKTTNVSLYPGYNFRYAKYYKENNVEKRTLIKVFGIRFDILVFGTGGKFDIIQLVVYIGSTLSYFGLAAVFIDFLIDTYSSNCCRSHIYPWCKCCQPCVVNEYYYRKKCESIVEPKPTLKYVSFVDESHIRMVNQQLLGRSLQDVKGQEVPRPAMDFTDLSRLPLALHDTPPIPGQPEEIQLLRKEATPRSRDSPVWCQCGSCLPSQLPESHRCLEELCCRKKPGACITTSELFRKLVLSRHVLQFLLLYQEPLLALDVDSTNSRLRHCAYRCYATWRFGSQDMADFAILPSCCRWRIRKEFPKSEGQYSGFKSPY
Test: whole-cell patch clamp, ATP concentration-response in low-DIC bath
pEC50: −log10 of the molar value.
propertyLabel: pEC50

INSERT INTO results (structure, propertylabel, reported) VALUES
  ('Nc1ncnc2c1ncn2[C@@H]1O[C@H](COP(=O)(O)OP(=O)(O)OP(=O)(O)O)[C@@H](O)[C@H]1O', 'pEC50', 3.47);
